Study System: NADPH oxidase 5 (Homo sapiens) (UniProt Q96PH1)
Sequence (Q96PH1 whole entry, looked up): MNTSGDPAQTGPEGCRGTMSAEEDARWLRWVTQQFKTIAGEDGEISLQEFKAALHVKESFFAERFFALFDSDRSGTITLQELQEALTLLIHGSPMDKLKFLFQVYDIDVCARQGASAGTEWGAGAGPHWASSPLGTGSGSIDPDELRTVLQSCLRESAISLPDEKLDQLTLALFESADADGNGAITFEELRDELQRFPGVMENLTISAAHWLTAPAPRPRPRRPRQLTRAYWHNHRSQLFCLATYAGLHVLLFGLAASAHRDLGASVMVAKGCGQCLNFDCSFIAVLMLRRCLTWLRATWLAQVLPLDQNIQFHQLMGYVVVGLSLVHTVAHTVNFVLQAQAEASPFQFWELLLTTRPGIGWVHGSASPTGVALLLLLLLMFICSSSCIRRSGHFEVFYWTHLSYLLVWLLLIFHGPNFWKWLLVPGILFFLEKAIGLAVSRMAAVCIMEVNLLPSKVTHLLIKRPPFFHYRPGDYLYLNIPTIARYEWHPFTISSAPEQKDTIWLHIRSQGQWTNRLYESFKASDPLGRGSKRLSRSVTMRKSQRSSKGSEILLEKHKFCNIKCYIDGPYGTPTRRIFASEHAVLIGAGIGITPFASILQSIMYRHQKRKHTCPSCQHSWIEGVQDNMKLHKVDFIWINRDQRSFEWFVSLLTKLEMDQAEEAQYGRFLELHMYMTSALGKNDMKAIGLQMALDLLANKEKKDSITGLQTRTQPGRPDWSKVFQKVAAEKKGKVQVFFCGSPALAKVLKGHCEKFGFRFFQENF
Measurement Protocol: compounds shifting NOX5 Amplex Red fluorescence – cell-based, HEK293-NOX5, NOX inhibitor project, primary screen (AID 1161)
Run Conditions: HEK293-NOX5, ionomycin, 45 min, higher = more signal
Label True when z-score is at or above -3; anything below gets False.

Molecule | Class Assignment
O=C1C2C=CC(C(O)c3ccc(-c4ccccc4)s3)N(Nc3ccccc3F)C2C(=O)N1c1ccccc1 (stereo not drawn) | False
NC(=O)NCC#Cc1ccc2c(c1)[C@]1(C(=O)N2)[C@H](c2ccccc2OCCO)N2[C@H](c3ccccc3)[C@H](c3ccccc3)OC(=O)[C@H]2[C@@H]1C(=O)N1CCCCCCC1 | True
COC(=O)[C@@]1(Cc2ccc(F)cc2)[C@H]2c3cc(C(=O)N(C)C)n(CCc4c[nH]c5ccc(OC)cc45)c3C[C@H]2CN1C(=O)c1ccccc1 | False
C=C[C@@H](C)[C@@H](OC(=O)Nc1ccc(OC)cc1)c1ccc(O)c2ccccc12 | True
O=C(NCC(O)CO)[C@@]1(Cc2ccccc2)COC(c2ccc(OCCCO)cc2)=N1 (stereo partly drawn) | True

Input: Determine whether measured z-score meets or exceeds -3 for O=C1C[C@@](C(=O)O)(c2ccc([N+](=O)[O-])cc2)[C@@H](c2ccc(CO)cc2I)N1C1CCCCC1
Output: True

Input: Hi team, for C=C[C@H](OC)[C@@H](OC(=O)Nc1ccc(SC)cc1)c1ccc(OCCO)cc1 , is the recorded z-score at or above -3?
Output: True

Input: Exam item: decide whether the reported z-score for C=CC[C@@]1(C(=O)OC)N=C(c2ccc(OCCCO)cc2)O[C@@H]1c1ccccc1CN=[N+]=[N-] is at least -3.
Output: False
